Values from BindingDB's records for doi:10.7270/Q2JD4V7Q

System Tested: UniProt Q9Y5S8
Sequence (Q9Y5S8 whole entry): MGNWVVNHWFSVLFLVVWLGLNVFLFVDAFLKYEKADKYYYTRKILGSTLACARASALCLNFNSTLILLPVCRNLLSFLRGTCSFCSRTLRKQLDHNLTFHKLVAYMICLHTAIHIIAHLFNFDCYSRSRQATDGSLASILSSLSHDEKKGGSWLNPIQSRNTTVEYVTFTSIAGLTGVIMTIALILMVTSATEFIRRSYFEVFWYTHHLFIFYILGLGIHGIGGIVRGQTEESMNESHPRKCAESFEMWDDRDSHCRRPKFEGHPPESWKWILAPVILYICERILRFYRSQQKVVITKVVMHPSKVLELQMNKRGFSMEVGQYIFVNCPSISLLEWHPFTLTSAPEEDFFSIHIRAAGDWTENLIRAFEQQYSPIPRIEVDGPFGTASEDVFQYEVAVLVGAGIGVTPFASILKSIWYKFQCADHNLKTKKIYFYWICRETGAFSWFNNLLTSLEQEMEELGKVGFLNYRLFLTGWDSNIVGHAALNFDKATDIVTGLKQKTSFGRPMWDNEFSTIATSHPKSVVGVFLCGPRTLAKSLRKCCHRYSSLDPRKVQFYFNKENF
Experimental Endpoint: IC50

INSERT INTO results (chemical_smiles, reading) VALUES
  ('Oc1c(Br)cc(CN=Nc2c(Cl)cncc2Cl)cc1Br', '> 50 µM');
